- Tested on: UACC-62 melanoma
- measurementDescription: NCI tumour cell line growth inhibition, 48 h
observable: TGI

Answered examples (8):
molecule	subjectOfTest	TGI
CS(=O)(=O)c1cc(=O)c2ccccc2s1	UACC-62 melanoma	27.3 µM
O=C1C(Cl)C(c2cccc(Cl)c2)N1c1ccc(-n2c(=S)[nH]c3ccccc3c2=O)cc1 (stereo not drawn)	UACC-62 melanoma	31.5 µM
CC(C)c1ccc(C(c2ccc(OCC(=O)O)cc2)c2ccc(C(C)C)cc(=O)c2O)c(O)c(=O)c1	UACC-62 melanoma	20.7 µM
COc1ccccc1N1CCN(CCCN2/C(=C(\O)c3ccccc3)C(=O)c3c(C)cc(C)nc3S2(=O)=O)CC1	UACC-62 melanoma	> 100 µM
O=c1[nH]c(Nc2nc3ccccc3[nH]2)nc2c1CCC2	UACC-62 melanoma	> 100 µM
NNc1nncc2n[nH]nc12	UACC-62 melanoma	> 100 µM
COC(=O)c1c(C)[nH]c(/C=C2\N=C(c3ccc[nH]3)C=C2OC)c1C	UACC-62 melanoma	0.921 µM
COc1cc(OC)cc(-c2nc3cc(F)ccc3s2)c1	UACC-62 melanoma	41.7 µM

Would you be so kind as to report TGI for each listed record?
1. O=C1CCCC2(c3ccccc3)Nc3ccccc3N12 (stereo not drawn)
2. O=C(O)Cc1cc(O)c(CC(=O)O)cc1O
3. CCOP(=O)(CN1CCNCCNCC1)OCC
4. Nc1nc(-c2cccc(Cl)c2)c(-c2ccc3ncccc3n2)s1
5. Cc1ccc(N=Nc2c(C)c(C#N)c(=S)n(C3OC(CO)C(O)C(O)C3O)c2C)cc1 (stereo not drawn)
6. O=C1O/C(=C(/Cl)c2cccc3ccccc23)c2ccccc21
7. COC(=O)C(=O)C(C(=O)C=C(C)C)C(=O)C(=O)Nc1ccc(C)cc1C (stereo not drawn)
8. COC(C(O)c1ccc2c(c1)OCO2)P(=O)(c1ccccc1)c1ccccc1 (stereo not drawn)

1: > 100 µM; 2: > 100 µM; 3: > 100 µM; 4: > 25 µM; 5: 29 µM; 6: > 100 µM; 7: > 100 µM; 8: > 100 µM
